- assay.method.text: Tmax in SCID mouse at 10 mg/kg, po
- Type: ADME, organism-based
- Set-up: dose 10 mg/kg, route oral
- measurement.parameters: in vivo

[
  {
    "structure.string": "COc1cc(N2CCN(C[C@H](C)O)CC2)ccc1Nc1ncc2ccc(-c3ccccc3N(C)S(C)(=O)=O)n2n1",
    "Tmax": "1 h"
  }
]

----------
- assay.method.text: Half-life in mouse liver microsomes
- Type: ADME, Microsome
measured.quantity: half-life (min)

[
  {
    "structure.string": "COc1ccccc1-c1ccc2cnc(Nc3ccc(N4CCN(C)CC4)cc3)nn12",
    "reported.measurement": 8
  },
  {
    "structure.string": "CN1CCN(c2ccc(Nc3ncc4ccc(-c5ccccc5N(C)S(C)(=O)=O)n4n3)cc2)CC1",
    "reported.measurement": 30
  }
]
